measure: Ki (nM)
Give the value, in units of nM, as a plain number.

query: Hi! What's the reported Ki for `CC(C)=CCc1c2c(c3occ(-c4ccc(O)c(O)c4)c(=O)c3c1O)C=CC(C)(C)O2` on CB1 receptor (Homo sapiens)?
result: 1050

* * *

Molecular target: recombinant human monoamine oxidase-B (Homo sapiens)
Construct: purchased BD Biosciences (Bedford, MA, USA)
Sequence (P27338 whole entry): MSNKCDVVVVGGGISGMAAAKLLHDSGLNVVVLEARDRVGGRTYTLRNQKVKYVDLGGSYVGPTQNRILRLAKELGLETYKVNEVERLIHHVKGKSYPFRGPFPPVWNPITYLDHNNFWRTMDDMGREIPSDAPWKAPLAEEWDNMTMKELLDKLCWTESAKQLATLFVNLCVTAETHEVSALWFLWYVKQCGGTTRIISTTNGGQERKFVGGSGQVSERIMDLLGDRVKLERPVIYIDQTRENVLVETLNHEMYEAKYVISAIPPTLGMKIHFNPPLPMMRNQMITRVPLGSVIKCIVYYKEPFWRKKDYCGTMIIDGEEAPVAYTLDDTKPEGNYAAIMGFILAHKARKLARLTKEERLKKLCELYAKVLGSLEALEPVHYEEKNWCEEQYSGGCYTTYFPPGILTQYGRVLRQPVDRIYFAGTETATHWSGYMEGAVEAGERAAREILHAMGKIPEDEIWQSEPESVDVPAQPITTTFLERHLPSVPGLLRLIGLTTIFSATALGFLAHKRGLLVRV
Experiment: MAO-B inhibition, kynuramine deamination assay
Format: biochemical
Details: ratio of MAO-A IC50 to MAO-B IC50
Experimental: The inhibitory effects of the chemical components of M. pomifera (L.) on MAO-A and MAO-B were determined via the kynuramine deamination assay, where it was adapted for 96-well plates as described earlier. […] Inhibition was calculated as percent of the product formation compared to the corresponding control (enzyme-substrate reaction) without the inhibitors. […] Appropriate controls were set up to check the interference with the fluorescence measurements. […]
I'd be grateful if you could share measured SI index MAO-A/B for these entries.
Please give the numeric answer without any surrounding text.

query: Give its SI index MAO-A/B value. Item: CC(C)=CCc1c2c(c(O)c3c(=O)c(-c4ccc(O)c(O)c4)coc13)C=CC(C)(C)O2 [Auriculasin (VI), auriculasin]
result: 24.073

query: I would be grateful if you could share the reported SI index MAO-A/B for COC(c1c2c(c(O)c3c(=O)c(-c4ccc(O)c(O)c4)coc13)C=CC(C)(C)O2)C1OC1(C)C (stereo not shown) [Kazosajin IV] .
result: 4.032

query: // returns reported SI index MAO-A/B for input COC(Cc1c2c(c(O)c3c(=O)c(-c4ccc(O)c(O)c4)coc13)C=CC(C)(C)O2)C(C)(C)O (stereo not shown) [Kazosajin I]
result: 6.413

query: Look at this molecule and give its reported SI index MAO-A/B. C=C(C)C(O)C(=O)c1c2c(c3occ(-c4ccc(O)c(O)c4)c(=O)c3c1O)C=CC(C)(C)O2 (stereo not shown) [Kazosajin II]
result: 16.829

Reference source: paper PMC5820588
